Property: Papp; scope: individual compounds
Experiment: passive permeability, PAMPA, ADME assay (AID 1508612)
Conditions: pH 7.4, 30.0 min, 50.0 µM

{"columns": ["MOL", "Papp"],
 "data": [
  ["CCCN(C(=O)c1sc2nc3n(c(=O)c2c1C)CCCC3)c1ccccc1C", "> 1000 ×10⁻⁶ cm/s"],
  ["CC(=O)Nc1ccc(S(=O)(=O)Nc2nccs2)cc1", "< 1 ×10⁻⁶ cm/s"]
]}

q: Can you share its Papp? I mean this compound: CCOC(=O)C1CCN(c2ncc(-c3ccc4c(c3)OCCCO4)s2)CC1
a: > 1000 ×10⁻⁶ cm/s

###

Experiment: passive permeability, PAMPA, ADME assay (AID 1508612)
Conditions: pH 7.4, 30.0 min, 50.0 µM
// Papp lookup, one value per entry
A number alone suffices; assume ×10⁻⁶ cm/s.

{"columns": ["COMPOUND", "UOM", "Papp"],
 "data": [
  ["O=[S+]([O-])(Nc1ccccc1)c1ccc(NCc2cccc(Cl)c2F)cc1", "×10⁻⁶ cm/s", 383],
  ["O=c1cc(-c2nc(Nc3ccc(F)c(F)c3)c3ccccc3n2)cc[nH]1", "×10⁻⁶ cm/s", 396],
  ["CN1CCN(c2ccc(Nc3nn4c(=O)c5ccccc5nc4s3)cc2)CC1", "×10⁻⁶ cm/s", 653]
]}

Please find the next compound below.
q: What value of Papp has been reported for the following compound? CNC(=O)c1ccc(-c2cnc3cnc(C(=O)N(C)c4ccc(Cl)cc4)cn23)cc1
a: 120

###

Test: passive permeability, PAMPA, ADME assay (AID 1508612)
Details: pH 7.4, 30.0 min, 50.0 µM
compounds and their reported Papp

{"columns": ["COMPOUND", "Papp"],
 "data": [
  ["O=C1c2ccccc2C2=Nc3ccccc3SC(c3ccc(Cl)cc3)C12 (stereo unspecified)", "< 1 ×10⁻⁶ cm/s"]
]}

q: I'd like to know its Papp. The compound in question is COC(=O)c1ccnc(-c2cc(C(=O)Nc3ccc(C4(N)CC4)cc3)ccn2)c1
a: > 1000 ×10⁻⁶ cm/s

###

Experiment: passive permeability, PAMPA, ADME assay (AID 1508612)
Conditions: pH 7.4, 30.0 min, 50.0 µM
EXPERIMENTAL_ENDPOINT: Papp (×10⁻⁶ cm/s)
API: value field is a number in ×10⁻⁶ cm/s; no unit string.

# count of solved cases: 3
{"columns": ["COMPOUND", "Papp, ×10⁻⁶ cm/s"],
 "data": [
  ["Cc1nnc2n1-c1ccc(Cl)cc1C(c1ccccc1)=NC2", 125],
  ["Cc1ccc(CN2C(=O)C(O)(CC(=O)c3ccc(C)cc3)c3ccccc32)cc1 (configuration not stated)", 802],
  ["O=c1c2ccccc2nc2n1CCC2", 44.2]
]}

q: Query (compound): CC(=O)N1CCC(NC(=O)c2nc(-c3ccccc3)cc3[nH]ccc23)CC1 ; field requested: Papp
a: 288

q: Data request, read-out Papp, for CSc1ccc(C(=O)c2[nH]c(=O)[nH]c2C)cc1
a: 28.7

q: # Papp lookup, item O=C(CSc1nc(-c2ccc(F)cc2)[nH]c1-c1ccc(F)cc1)Nc1ccc2c(c1)OCCO2
a: 11

q: Recorded Papp for CCC(=O)N1CCN(c2ccc(-n3c(=O)ccc4cnc5ccc(-c6cnc7ccccc7c6)cc5c43)cc2C(F)(F)F)CC1 , please?
a: 178

q: # input compound: NC(=O)C1CCN(c2ncc(-c3cccc(N4CCOCC4)c3)s2)CC1 ; wanted: its Papp
a: 374

q: Give the measured Papp of O=C1CCCC2=C1C(C1CCCCC1Cl)N=C(NC1NC3CCCCC3S1)N2 (configuration not stated) .
a: 161

q: Given the compound CCOc1ccccc1N(CC(=O)Nc1cc(OC)ccc1OC)S(=O)(=O)c1ccccc1 , what is its reported Papp?
a: 968

q: Fill in: Papp of CC(Cc1ccc(O)cc1)NCC(O)c1cc(O)cc(O)c1 (configuration not stated) is ___
a: 1.9

Cited source: PubChem BioAssay AID1508612
